EXPERIMENT_NOTES: qHTS assay to test for compound auto fluorescence at 535 nm (green) in HEK293 cell free culture (AID 720682)
TEST_PARAMETERS: cell-free medium, green autofluorescence 485/535 nm; series mostly up to 46 µM
Description: U.S. Tox21 Program National Center for Advancing Translational Sciences [NCATS] NIH Chemical Genomics Center [NCGC] U.S. Environmental Protection Agency [EPA] National Institutes of Environmental Health Sciences [NIEHS] National Toxicology Program [NTP] U.S. Food and Drug Administration [FDA] Tox21 Assay Overview: Compound auto fluorescence often interferes with screening of the compound library against various biological targets and signaling pathways. […] This assay includes the green fluorescence data. […]
Calls of active or inactive are those of the source. Calls follow the shape of the dose curve; as a rule, active = well fitted curve in the direction sought with a large enough effect in the repeat runs; inconclusive = weak or mixed curves; inactive = flat fitted curve, though single readings scatter.
Outcome codes: T (active), F (inactive)

{"columns": ["MOLECULE", "GROUP"],
 "data": [
  ["C[C@@H]1C[C@H]2[C@@H]3CCC4=CC(=O)C=C[C@]4(C)[C@@]3(F)[C@@H](O)C[C@]2(C)[C@@]1(O)C(=O)COC(=O)c1cccc(S(=O)(=O)O)c1", "F"],
  ["COc1ccc(C(=O)Nc2ccccc2CCC2CCCCN2C)cc1 (centres undefined)", "F"],
  ["CCOC(=O)O[C@]1(C(=O)COC(=O)CC)CC[C@H]2[C@@H]3CCC4=CC(=O)C=C[C@]4(C)[C@H]3[C@@H](O)C[C@@]21C", "F"],
  ["CCCC(CCC)C(N)=O", "F"],
  ["C[C@H](O)[C@H](O)[C@H]1CNc2nc(N)[nH]c(=O)c2N1", "F"],
  ["COc1ccc2cc([C@H](C)CO)ccc2c1", "F"],
  ["Cc1ccccc1", "F"],
  ["CCCCCCCCCCCCCCCCCC(=O)[O][Al]", "F"],
  ["O.O=C([O-])CC([S-])C(=O)[O-].[Au+].[Na+].[Na+] (centres undefined)", "F"],
  ["Cc1cc2nc3c(=O)[nH]c(=O)nc-3n(C[C@H](O)[C@H](O)[C@H](O)COP(=O)(O)OP(=O)(O)OC[C@H]3O[C@@H](n4cnc5c(N)ncnc54)[C@H](O)[C@@H]3O)c2cc1C", "T"],
  ["CCCCCc1ccc(C)cc1O", "F"],
  ["C/C1=C2N=C(/C=C3N=C(/C(C)=C4\\[N-][C@@](C)([C@@H]5N=C1[C@](C)(CCC(=O)NCC(C)OP(=O)(O)O[C@H]1[C@@H](O)[C@@H](n6cnc7cc(C)c(C)cc76)O[C@@H]1CO)[C@H]5CC(N)=O)[C@@](C)(CC(N)=O)[C@@H]4CCC(N)=O)[C@@](C)(CC(N)=O)[C@@H]\\3CCC(N)=O)C(C)(C)[C@@H]/2CCC(N)=O.CC(=O)O.[Co] (some centres undefined)", "F"],
  ["Cc1ccccc1OCC(O)CNCCOc1ccc(C(N)=O)cc1 (centres undefined)", "F"],
  ["CC1C(=O)CC2C3(C)CCC2(C(C)C(=O)O)C(=O)C13 (centres undefined)", "F"],
  ["CO[C@@H]1[C@@H](O[C@@H]2O[C@H](C)[C@@H](O[C@H]3C[C@@](C)(O)[C@@H](O)[C@H](C)O3)[C@H](N(C)C)[C@H]2O)[C@@H](CC=O)C[C@@H](C)[C@@H](O[C@@H]2CC[C@H](N(C)C)[C@@H](C)O2)/C=C/C=C/C[C@@H](C)OC(=O)C[C@H]1O", "F"],
  ["Cc1cc(O)c2c(c1)O[C@@]1(C)CC[C@H]3C(C)(C)CCCC34CO[C@@H]2[C@H]41 (some centres undefined)", "F"],
  ["c1ccc2cc(C3=NCCN3)ccc2c1", "F"],
  ["CN1[C@@H]2CC[C@H]1CC(OC(c1ccccc1)c1ccccc1)C2 (some centres undefined)", "F"],
  ["O=P(O)(O)OC[C@H](O)CO", "F"],
  ["COc1ccc2c(c1)OC(C)(C)C(c1ccccc1)C2c1ccc(OCCN2CCCC2)cc1 (centres undefined)", "F"],
  ["Nc1ccn(C[C@@H](CO)OCP(=O)(O)O)c(=O)n1", "F"],
  ["C[C@]12CC[C@@H]3c4ccc(O)cc4CC[C@H]3[C@@H]1CC[C@@H]2OP(=O)(O)O", "F"],
  ["OC[C@H]1O[C@@H](n2cnc3c2NC=NC[C@H]3O)C[C@@H]1O", "F"],
  ["CC(C)CN(C[C@@H](OP(=O)(O)O)[C@H](Cc1ccccc1)NC(=O)O[C@H]1CCOC1)S(=O)(=O)c1ccc(N)cc1", "F"],
  ["CCCCCCCN(CC)CCCC(O)c1ccc(NS(C)(=O)=O)cc1 (centres undefined)", "F"],
  ["C[C@@H]1C[C@H]2C3C[C@H](F)C4=CC(=O)C=CC4(C)[C@@]3(F)[C@@H](O)CC2(C)[C@@]1(O)C(=O)COC(=O)C(C)(C)C (some centres undefined)", "F"],
  ["CC1(C)C(\\C=C/C=C\\C=C/C=C2/N(CCCCS(=O)(=O)O)c3ccc4ccccc4c3C2(C)C)=[N+](CCCCS(=O)(=O)[O-])c2ccc3ccccc3c21", "F"],
  ["CCCCCCCCCCCCCCCCSCC(COC)COP(=O)([O-])OCC[N+](C)(C)C (centres undefined)", "F"],
  ["CC(C)NCC(O)COc1ccccc1-n1cccc1 (centres undefined)", "F"],
  ["CCCCCCCCCCCCCCCC(=O)O[C@@H]1[C@@H](O)[C@@H](O)[C@@H]([C@H](NC(=O)[C@@H]2C[C@@H](CCC)CN2C)[C@H](C)Cl)O[C@@H]1SC", "F"],
  ["C#C[C@]1(O)CC[C@H]2[C@@H]3CCC4=CCCC[C@@H]4[C@H]3C(=C)C[C@@]21CC", "F"],
  ["COc1cc2[nH]c(C)c(CCN3CCN(c4ccccc4)CC3)c2cc1OC", "F"],
  ["CO/N=C(\\C(=O)N[C@@H]1C(=O)N2C(C(=O)OCOC(=O)C(C)(C)C)=C(/C=C\\c3scnc3C)CS[C@H]12)c1csc(N)n1", "F"],
  ["CC(=O)Oc1c(C)cc(OCC(O)CNC(C)C)c(C)c1C (centres undefined)", "F"]
]}
